// data source = ChEMBL document CHEMBL1123680

assay: Percent biliary excretion property by administering intravenously to rats was reported as amount of unchanged form of compound detected in bile samples collected at 0-6 hr after the treatment.; settings: rat, iv
Could you mark each record y if its dose excreted falls strictly under 30%, and n if it equals or exceeds it?

Some solved entries appear below for comparison.
1. O=[N+]([O-])c1c[nH]cn1 :: y
2. Cc1ncc([N+](=O)[O-])n1CC(O)CCl (stereo not given) :: y
3. Cn1c([N+](=O)[O-])cnc1/C=C/c1ccnc(N)n1 :: n
4. CC(C)c1ncc([N+](=O)[O-])n1C :: y

Turning now to a further compound:
Query: API: query returns whether the compound falls strictly under 30% in dose excreted. Query: `Cn1c([N+](=O)[O-])cnc1C=O`
Response: n

---

test: Percent biliary excretion property by administering intravenously to rats was reported as amount of unchanged form of compound detected in bile samples collected at 0-6 hr after the treatment.; conditions: rat, iv
readout-kind: dose excreted (%)
Answers are plain numbers, in %.

Observe how each entry below is paired with its result.
1) Cn1c([N+](=O)[O-])cnc1CO :: 37.8
2) COC(=S)NCCn1c([N+](=O)[O-])cnc1C [CARNIDAZOLE] :: 8.94
3) Cc1ncc([N+](=O)[O-])n1CCO [METRONIDAZOLE] :: 24.6
4) O=[N+]([O-])c1cncn1CCN1CCOCC1 [NIMORAZOLE] :: 11.8
5) Cn1c([N+](=O)[O-])cnc1COC(N)=O [RONIDAZOLE] :: 19.7

Query: Endpoint output: dose excreted of CCS(=O)(=O)CCn1c([N+](=O)[O-])cnc1C [TINIDAZOLE] . Value?
Response: 10.5

---

experiment: Percent biliary excretion property by administering intravenously to rats was reported as amount of unchanged form of compound detected in bile samples collected at 0-1 hr after the treatment.; conditions: rat, iv
Group membership follows dose excreted per the scheme LOW: < 3%; MEDIUM: ≥ 3% and < 9%; HIGH: ≥ 9%

The following compounds have reported results that may help.
1. CCS(=O)(=O)CCn1c([N+](=O)[O-])cnc1C [TINIDAZOLE] :: LOW
2. Cn1c([N+](=O)[O-])cnc1CO :: HIGH
3. Cn1c([N+](=O)[O-])cnc1C=O :: HIGH
4. Cc1ncc([N+](=O)[O-])n1CCO [METRONIDAZOLE] :: MEDIUM

Query: State the band of O=[N+]([O-])c1cncn1CCN1CCOCC1 [NIMORAZOLE]
Response: MEDIUM

Query: Also, Cn1c([N+](=O)[O-])cnc1/C=C/c1ccnc(N)n1 [AZANIDAZOLE] please.
Response: HIGH

Query: Can you check Cn1c([N+](=O)[O-])cnc1COC(N)=O [RONIDAZOLE] next?
Response: MEDIUM

---

experiment: Percent biliary excretion property by administering intravenously to rats was reported as amount of unchanged form of compound detected in bile samples collected at 0-3 hr after the treatment.; settings: rat, iv
Label TRUE when dose excreted is strictly below 20%; at or above that, label FALSE.

Solved entries (count: 3):
1. Cn1c([N+](=O)[O-])cnc1COC(N)=O :: TRUE
2. CC(C)c1ncc([N+](=O)[O-])n1C :: TRUE
3. Cn1c([N+](=O)[O-])cnc1C=O :: FALSE

Query: Dear colleague, could you confirm whether dose excreted of `Cn1c([N+](=O)[O-])cnc1/C=C/c1ccnc(N)n1` falls below 20%? Thanks.
Response: FALSE

Query: Same read-out for Cc1ncc([N+](=O)[O-])n1CC(O)CCl (stereo unspecified) ?
Response: TRUE

Query: Another molecule: `Cc1ncc([N+](=O)[O-])n1CCO`
Response: TRUE

Query: Note, next up: `Cn1c([N+](=O)[O-])cnc1CO`
Response: FALSE

Query: Another molecule to check: `CCS(=O)(=O)CCn1c([N+](=O)[O-])cnc1C`
Response: TRUE

Query: Continue with `O=[N+]([O-])c1cncn1CCN1CCOCC1`
Response: TRUE

Query: // query: `O=[N+]([O-])c1c[nH]cn1`
Response: TRUE

Query: And the next one, `COC(=S)NCCn1c([N+](=O)[O-])cnc1C` ?
Response: TRUE
